This listing pairs molecules with measured pKi.
molecular target: UniProt P30543; experiment: Test for affinity for brain adenosine A-2 receptors ([3H]NECA competition, striatal membranes); conditions: rat brain striatum membranes, [3H]NECA 94 nM, 25°C, 60 minutes; read-out: A-2 Receptor Ki
pKi: −log10 of the molar value.

molecule: C1=Nc2c(ncn2-c2ccccc2)C2=N[C@@H](Cc3ccccc3)CN12 [Compound 5]
assay.target: UniProt P30543
comparative.sign: <
pKi: 3.70

molecule: C1=Nc2nc[nH]c2C2=N[C@H](Cc3ccccc3)CN12 [Compound 9]
assay.target: UniProt P30543
comparative.sign: <
pKi: 3.70

molecule: CCCOC1=Nc2c(cnn2-c2ccccc2)C2=N[C@H](Cc3ccccc3)CN12 [Compound 1]
assay.target: UniProt P30543
comparative.sign: <
pKi: 5.16

molecule: C1=Nc2nc[nH]c2C2=N[C@@H](Cc3ccccc3)CN12 [Compound 10]
assay.target: UniProt P30543
comparative.sign: <
pKi: 3.70

molecule: OC[C@H]1O[C@@H](n2cnc3c2N=CN2C[C@H](Cc4ccccc4)N=C32)[C@H](O)[C@@H]1O [Compound 13]
assay.target: UniProt P30543
comparative.sign: =
pKi: 4.97

molecule: C1=Nc2c(cnn2-c2ccccc2)C2=N[C@H](Cc3ccccc3)CN12 [Compound 3]
assay.target: UniProt P30543
comparative.sign: =
pKi: 4.60

molecule: CCCOC1=Nc2c(cnn2-c2ccccc2)C2=N[C@@H](Cc3ccccc3)CN12 [Compound 2]
assay.target: UniProt P30543
comparative.sign: =
pKi: 6.29

* * *

molecular target: adenosine A-2 receptors (Rattus norvegicus); assay: Test for affinity for brain adenosine A-2 receptors ([3H]NECA competition, striatal membranes); conditions: rat brain striatum membranes, [3H]NECA 94 nM, 25°C, 60 minutes; read-out: A-2 Receptor Ki
Sequence (P30543 whole entry): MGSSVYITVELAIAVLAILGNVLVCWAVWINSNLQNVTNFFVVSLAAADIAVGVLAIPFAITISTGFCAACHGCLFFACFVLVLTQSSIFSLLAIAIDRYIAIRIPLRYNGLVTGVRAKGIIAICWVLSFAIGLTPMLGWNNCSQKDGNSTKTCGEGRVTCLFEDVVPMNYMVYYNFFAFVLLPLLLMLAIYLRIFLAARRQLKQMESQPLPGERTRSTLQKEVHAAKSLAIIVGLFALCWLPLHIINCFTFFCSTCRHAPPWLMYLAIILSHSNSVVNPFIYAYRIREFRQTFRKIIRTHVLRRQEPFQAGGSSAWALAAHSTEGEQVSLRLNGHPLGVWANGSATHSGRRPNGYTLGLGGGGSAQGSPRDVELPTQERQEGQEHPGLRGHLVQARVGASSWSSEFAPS
pKi: −log10 of the molar value.

smiles.input: OC[C@H]1O[C@@H](n2cnc3c2N=CN2C[C@@H](Cc4ccccc4)N=C32)[C@H](O)[C@@H]1O
comparative.sign: =
pKi: 4.33
//
smiles.input: CCCOC1=Nc2c(cnn2-c2ccccc2)C2=N[C@H](C)[C@@H](c3ccccc3)N12
comparative.sign: =
pKi: 4.85
//
smiles.input: C1=Nc2c(cnn2-c2ccccc2)C2=N[C@@H](Cc3ccccc3)CN12
comparative.sign: <
pKi: 3.70
//
smiles.input: C1=Nc2c(ncn2-c2ccccc2)C2=N[C@H](Cc3ccccc3)CN12
comparative.sign: =
pKi: 4.00
